Reported values of IC50 for individual entries
studyTarget: recombinant CDK4/Cyclin D1 (Homo sapiens, UniProt P11802)
Construct: purchased Life Technologies PV4204
Sequence (P11802 whole entry): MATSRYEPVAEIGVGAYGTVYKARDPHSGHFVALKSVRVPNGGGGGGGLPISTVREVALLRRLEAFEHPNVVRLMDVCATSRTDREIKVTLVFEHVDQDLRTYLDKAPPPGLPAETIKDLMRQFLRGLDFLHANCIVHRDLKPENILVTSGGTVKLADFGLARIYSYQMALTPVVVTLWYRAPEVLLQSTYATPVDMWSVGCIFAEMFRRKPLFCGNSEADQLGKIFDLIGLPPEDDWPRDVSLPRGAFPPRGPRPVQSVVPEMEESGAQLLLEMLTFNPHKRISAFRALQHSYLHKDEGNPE
Sequence (P24385 whole entry partner): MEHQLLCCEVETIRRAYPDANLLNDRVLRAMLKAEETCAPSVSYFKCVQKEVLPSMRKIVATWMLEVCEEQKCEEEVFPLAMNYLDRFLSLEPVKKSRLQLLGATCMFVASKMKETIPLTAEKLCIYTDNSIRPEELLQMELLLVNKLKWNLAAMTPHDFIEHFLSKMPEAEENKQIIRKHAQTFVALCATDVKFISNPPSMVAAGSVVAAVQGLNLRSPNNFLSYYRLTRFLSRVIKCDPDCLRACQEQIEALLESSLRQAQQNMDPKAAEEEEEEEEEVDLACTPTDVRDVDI
experimentalDetails: Biochemical kinase inhibition test, CDK4/Cyclin D1 (32P-ATP, retinoblastoma protein substrate)
experimentalParameters: three-fold serial dilution from 10 μM; 10 μM ATP; read-out: CDK4/D1 (nM), enzyme inhibitory activity IC50
propertyLabel: IC50

CCn1ncc2ccc3cnc(Nc4ccc(N5CCOCC5)cn4)nc3c21: 10 to 20 nM
Cc1nc(Nc2ncc3ccc4cnn(C5CCCC5)c4c3n2)ccc1N1CCNCC1: 1 to 5 nM
CCn1ncc2ccc3cnc(Nc4ccc(N5CCNCC5)c(F)n4)nc3c21.Cl: 10 to 20 nM
Cc1cc(Nc2ncc3ccc4cnn(C5CC5)c4c3n2)ncc1N1CCOCC1: 10 to 20 nM
CCN1CCN(c2cnc(Nc3ncc4ccc5cnn(CC)c5c4n3)cc2C)CC1: 20 to 50 nM
CC1CN(c2ccc(Nc3ncc4ccc5cnn(C(C)C)c5c4n3)nc2)CCO1 (centres unmarked): 5 to 10 nM
CCn1ncc2ccc3cnc(Nc4cc(F)c(N5CCNCC5)cn4)nc3c21.Cl: 20 to 50 nM
Cc1cc(Nc2ncc3ccc4cnn(C(C)C)c4c3n2)ncc1N1CCN(C)CC1: 5 to 10 nM
